# credit: patent US11904051B2

assay: Dynamic light scattering of liposome formulations before and after SANS heating cycles; type: physicochemical; conditions: before the SANS experiments (n = 5)
property-measured: PDI, Before heating

line-notation: CCCCCCCCCCCCCCCCC(=O)NCC(CNC(=O)CCCCCCCCCCCCCCCC)OP(=O)([O-])OCC[N+](C)(C)C
data-value: 0.57 ± 0.01
//
line-notation: CCCCCCCCCCCCCCCCCC(=O)NCC(CNC(=O)CCCCCCCCCCCCCCCCC)OP(=O)([O-])OCC[N+](C)(C)C
data-value: 0.23 ± 0.01
//
line-notation: CCCCCCCCCCCCCCCC(=O)NC[C@H](COP(=O)([O-])OCC[N+](C)(C)C)NC(=O)CCCCCCCCCCCCCCC
data-value: 0.57
//
line-notation: CCCCCCCCCCCCCCCC(=O)OCC(COC(=O)CCCCCCCCCCCCCCC)OP(=O)([O-])OCC[N+](C)(C)C
data-value: 0.57 ± 0.01

====

Documented most probable bilayer thickness across a set of compounds
assay: Small-angle neutron scattering (SANS) of liposomes as a function of temperature; type: physicochemical; conditions: 35 ° C.

compound: CCCCCCCCCCCCCCCC(=O)OCC(COC(=O)CCCCCCCCCCCCCCC)OP(=O)([O-])OCC[N+](C)(C)C [Pes-PC-Pes]
most probable bilayer thickness / nm: 4.6
--
compound: CCCCCCCCCCCCCCCC(=O)NC[C@H](COP(=O)([O-])OCC[N+](C)(C)C)NC(=O)CCCCCCCCCCCCCCC [Pad-Pad-PC]
most probable bilayer thickness / nm: 5.54
--
compound: CCCCCCCCCCCCCCCCC(=O)NCC(CNC(=O)CCCCCCCCCCCCCCCC)OP(=O)([O-])OCC[N+](C)(C)C [Rad-PC-Rad]
most probable bilayer thickness / nm: 4.45
--
compound: CCCCCCCCCCCCCCCCCC(=O)NCC(CNC(=O)CCCCCCCCCCCCCCCCC)OP(=O)([O-])OCC[N+](C)(C)C [Sad-PC-Sad, 1,3-distearamidopropan-2-phosphocholine]
most probable bilayer thickness / nm: 3.46
--
compound: CCCCCCCCCCCCCCCC(=O)OC[C@H](COP(=O)([O-])OCC[N+](C)(C)C)OC(=O)CCCCCCCCCCCCCCC [DPPC]
most probable bilayer thickness / nm: 4.61

====

Here, each record is paired with measured Size (hydrodynamic), After heating data.
assay: Dynamic light scattering of liposome formulations before and after SANS heating cycles; format: physicochemical; conditions: after the SANS experiments (n = 3), heating to 42° C. and back, eight months after

line-notation: CCCCCCCCCCCCCCCCC(=O)NCC(CNC(=O)CCCCCCCCCCCCCCCC)OP(=O)([O-])OCC[N+](C)(C)C
unit-descriptor: nm
Size (hydrodynamic), After heating: 700
--
line-notation: CCCCCCCCCCCCCCCC(=O)OC[C@H](COP(=O)([O-])OCC[N+](C)(C)C)OC(=O)CCCCCCCCCCCCCCC
unit-descriptor: nm
Size (hydrodynamic), After heating: 600
--
line-notation: CCCCCCCCCCCCCCCC(=O)NCC(CNC(=O)CCCCCCCCCCCCCCC)OP(=O)([O-])OCC[N+](C)(C)C
unit-descriptor: nm
Size (hydrodynamic), After heating: 53
--
line-notation: CCCCCCCCCCCCCCCC(=O)OCC(COC(=O)CCCCCCCCCCCCCCC)OP(=O)([O-])OCC[N+](C)(C)C
unit-descriptor: nm
Size (hydrodynamic), After heating: 3100
--
line-notation: CCCCCCCCCCCCCCCCCC(=O)NCC(CNC(=O)CCCCCCCCCCCCCCCCC)OP(=O)([O-])OCC[N+](C)(C)C
unit-descriptor: nm
Size (hydrodynamic), After heating: 220

====

Experiment: Small-angle neutron scattering (SANS) of liposomes as a function of temperature
Assay type: physicochemical
Details: 25 ° C.
Procedure: In order to determine the structural parameters, including the bilayer thickness of the selected liposomal formulations, a suitable model for data fitting has to be identified. […] SANS measurements were performed at the SANS-I beamline at the Swiss Spallation Neutron Source SINQ facility (Paul Scherrer Institute, Villigen, Switzerland). […] Subsequently, the suspensions were cooled down to room temperature (22° C.) and measured again. […]
Binarize most probable bilayer thickness at 5 nm; below is Condition met, at or above is Condition not met.

line-notation: CCCCCCCCCCCCCCCCCC(=O)NCC(CNC(=O)CCCCCCCCCCCCCCCCC)OP(=O)([O-])OCC[N+](C)(C)C
cat: Condition met
//
line-notation: CCCCCCCCCCCCCCCC(=O)OC[C@H](COP(=O)([O-])OCC[N+](C)(C)C)OC(=O)CCCCCCCCCCCCCCC
cat: Condition met
//
line-notation: CCCCCCCCCCCCCCCC(=O)NC[C@H](COP(=O)([O-])OCC[N+](C)(C)C)NC(=O)CCCCCCCCCCCCCCC
cat: Condition not met
//
line-notation: CCCCCCCCCCCCCCCC(=O)OCC(COC(=O)CCCCCCCCCCCCCCC)OP(=O)([O-])OCC[N+](C)(C)C
cat: Condition met
//
line-notation: CCCCCCCCCCCCCCCCC(=O)NCC(CNC(=O)CCCCCCCCCCCCCCCC)OP(=O)([O-])OCC[N+](C)(C)C
cat: Condition met

====

assay: Small-angle neutron scattering (SANS) of liposomes as a function of temperature; type: physicochemical; conditions: 39 ° C.
compounds and their reported most probable bilayer thickness
property-measured: most probable bilayer thickness (nm)

line-notation: CCCCCCCCCCCCCCCCCC(=O)NCC(CNC(=O)CCCCCCCCCCCCCCCCC)OP(=O)([O-])OCC[N+](C)(C)C
unit-descriptor: nm
data-value: 3.38
//
line-notation: CCCCCCCCCCCCCCCC(=O)OCC(COC(=O)CCCCCCCCCCCCCCC)OP(=O)([O-])OCC[N+](C)(C)C
unit-descriptor: nm
data-value: 4.68
//
line-notation: CCCCCCCCCCCCCCCCC(=O)NCC(CNC(=O)CCCCCCCCCCCCCCCC)OP(=O)([O-])OCC[N+](C)(C)C
unit-descriptor: nm
data-value: 4.35
//
line-notation: CCCCCCCCCCCCCCCC(=O)NC[C@H](COP(=O)([O-])OCC[N+](C)(C)C)NC(=O)CCCCCCCCCCCCCCC
unit-descriptor: nm
data-value: 5.58
//
line-notation: CCCCCCCCCCCCCCCC(=O)OC[C@H](COP(=O)([O-])OCC[N+](C)(C)C)OC(=O)CCCCCCCCCCCCCCC
unit-descriptor: nm
data-value: 4.65

====

experiment: Release experiments with 5(6)-carboxyfluorescein-loaded large unilamellar vesicles (LUVET100), spontaneous and vortex-triggered; format: physicochemical; settings: 37° C., 2 h

compound: CCCCCCCCCCCCCCCC(=O)NCC(CNC(=O)CCCCCCCCCCCCCCC)OP(=O)([O-])OCC[N+](C)(C)C [Pad-PC-Pad]
unit-descriptor: %
Release at 37° C. after 2 h: 100

compound: CCCCCCCCCCCCCCCC(=O)OC[C@H](COP(=O)([O-])OCC[N+](C)(C)C)OC(=O)CCCCCCCCCCCCCCC [DPPC]
unit-descriptor: %
Release at 37° C. after 2 h: 12.2

compound: CCCCCCCCCCCCCCCCC(=O)NCC(CNC(=O)CCCCCCCCCCCCCCCC)OP(=O)([O-])OCC[N+](C)(C)C [Rad-PC-Rad]
unit-descriptor: %
Release at 37° C. after 2 h: 6

compound: CCCCCCCCCCCCCCCCCC(=O)NCC(CNC(=O)CCCCCCCCCCCCCCCCC)OP(=O)([O-])OCC[N+](C)(C)C [Sad-PC-Sad, 1,3-distearamidopropan-2-phosphocholine]
unit-descriptor: %
Release at 37° C. after 2 h: 9.1

====

test: Small-angle neutron scattering (SANS) of liposomes as a function of temperature; type: physicochemical; settings: 42 ° C.
property-measured: most probable bilayer thickness (nm)

compound: CCCCCCCCCCCCCCCCC(=O)NCC(CNC(=O)CCCCCCCCCCCCCCCC)OP(=O)([O-])OCC[N+](C)(C)C [Rad-PC-Rad]
data-value: 4.4

compound: CCCCCCCCCCCCCCCCCC(=O)NCC(CNC(=O)CCCCCCCCCCCCCCCCC)OP(=O)([O-])OCC[N+](C)(C)C [Sad-PC-Sad, 1,3-distearamidopropan-2-phosphocholine]
data-value: 3.33

compound: CCCCCCCCCCCCCCCC(=O)NC[C@H](COP(=O)([O-])OCC[N+](C)(C)C)NC(=O)CCCCCCCCCCCCCCC [Pad-Pad-PC]
data-value: 5.57

compound: CCCCCCCCCCCCCCCC(=O)OC[C@H](COP(=O)([O-])OCC[N+](C)(C)C)OC(=O)CCCCCCCCCCCCCCC [DPPC]
data-value: 4.65

compound: CCCCCCCCCCCCCCCC(=O)OCC(COC(=O)CCCCCCCCCCCCCCC)OP(=O)([O-])OCC[N+](C)(C)C [Pes-PC-Pes]
data-value: 4.58
